Target: recombinant human TFPI (tissue factor pathway inhibitor) (human, UniProt P10646 29-304)
Assay: cell-based or functional assay
# FXa assay % of FXa alone, 10 nM Ab, 10 nM TFPI per entry
Please respond with the number in % and leave the unit unwritten.

Worked cases, FXa assay % of FXa alone, 10 nM Ab, 10 nM TFPI given:
binder	measured_value
clone 3203 (antibody, V domains shown) VH: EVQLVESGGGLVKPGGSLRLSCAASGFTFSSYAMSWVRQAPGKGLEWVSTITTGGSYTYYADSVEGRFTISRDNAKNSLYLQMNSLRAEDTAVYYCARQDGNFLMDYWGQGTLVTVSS VL: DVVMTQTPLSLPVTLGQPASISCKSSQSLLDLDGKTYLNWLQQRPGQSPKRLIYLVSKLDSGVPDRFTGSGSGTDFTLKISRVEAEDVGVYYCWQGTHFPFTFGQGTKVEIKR	48.5
clone 4206 (antibody, V domains shown) VH: EVQLVESGGGLVKPGGSLRLSCAASGFTFSSYAMNWVRQAPGKGLEWVSTITTGGSHTYYADSVEGRFTISRDNAKNSLYLQMDSLRAEDTAVYYCARQDGNFLMDYWGQGTLVTVSS VL: DVVMTQTPLSLPVTLGQPASISCKSSQSLLDVDGKTYLNWLQQRPGQSPKRLIYLVSKLDSGVPDRFTGSGSGTDFTLKISRVEAEDVGVYYCWQGTHLPFTFGQGTKVEIKR	7.1
clone 4208 (antibody, V domains shown) VH: EVQLVESGGGLVKSGGSLRLSCAASGFTFSSYAMSWVRQAPGKGLEWVGTITTGGSYTYYADSVQGRFTISRDNAKNSLYLQMNSLRAEDTAVYYCARQDGNFLMDYWGQGTLVTVSS VL: DVVMTQTPLSLPVTLGQPASISCKSSQSLLDTDGKTYLNWLQQRPGQSPKRLIYLVSKLDSGVPDRFTGSGSGTDFTLKISRVEAEDVGVYYCWQGTHFPFTFGQGTKVEIKR	12.2
clone 1023 (antibody, V domains shown, scFv on yeast at selection; human IgG4/kappa IgG as purified) VH: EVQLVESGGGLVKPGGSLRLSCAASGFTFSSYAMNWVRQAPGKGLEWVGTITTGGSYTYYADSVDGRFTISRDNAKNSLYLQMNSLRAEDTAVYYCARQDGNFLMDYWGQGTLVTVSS VL: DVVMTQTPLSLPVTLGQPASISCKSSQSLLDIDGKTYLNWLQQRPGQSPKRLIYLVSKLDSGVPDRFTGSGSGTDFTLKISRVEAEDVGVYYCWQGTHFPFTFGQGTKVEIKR	84.3

Next binder, FXa assay % of FXa alone, 10 nM Ab, 10 nM TFPI to be filled in.
Give the measured FXa assay % of FXa alone, 10 nM Ab, 10 nM TFPI of clone A67 (antibody, V domains shown) VH: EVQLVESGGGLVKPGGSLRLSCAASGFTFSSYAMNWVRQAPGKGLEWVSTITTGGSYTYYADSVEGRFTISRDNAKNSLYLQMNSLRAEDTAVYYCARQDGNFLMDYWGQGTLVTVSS VL: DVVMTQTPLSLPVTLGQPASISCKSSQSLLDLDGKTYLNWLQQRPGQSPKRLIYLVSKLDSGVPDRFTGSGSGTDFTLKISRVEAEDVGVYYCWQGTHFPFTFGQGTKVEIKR . 63.5

Hello, the source for this data is patent US20180030151A1, in case you need it.
